Data provenance is patent US10179791B2.

Documented S1P5 pEC50 across a set of compounds
Target: UniProt:Q9H228
Assay: In vitro functional activity (agonism) on human S1P5 receptors, CHO-human-S1P5-Aequorin assay
Assay type: cell-based
Details: aequorin luminescence, CHO cells, 3 independent experiments
Structures can show the parent of a compound that is named as a salt.

Some solved cases for reference:
[ask] Let me know recorded S1P5 pEC50 for CC(CN1CCC2(CC1)COc1cc(OCc3c(Cl)cccc3Cl)ccc12)C(=O)O (stereo not drawn) [Compound 100, hydrochloride] , thanks.
[reply] 7

[ask] Let me know recorded S1P5 pEC50 for O=C(O)CCN1CCCC2(COc3cc(OCc4c(Cl)cccc4C4CC4)ccc32)C1 (stereo not drawn) [Compound 317, hydrochloride] , thanks.
[reply] 7

[ask] Let me know recorded S1P5 pEC50 for O=C(O)CCN1CCC2(CC1)COc1cc(OCc3c(F)cccc3C3CC3)ccc12 [Compound 253] , thanks.
[reply] 7.7

[ask] Let me know recorded S1P5 pEC50 for O=C(O)CCN1CCC2(CC1)COc1cc(OCc3c(Cl)cccc3C3CC3)ccc12 [Compound 75, hydrochloride] , thanks.
[reply] 7.7

[ask] Let me know recorded S1P5 pEC50 for CCc1cccc(CC)c1COc1ccc2c(c1)OCC21CCN(CCC(=O)O)CC1 [Compound 258] , thanks.
[reply] 7.8

Next:
[ask] Let me know recorded S1P5 pEC50 for O=C(O)CN1CCC2(CC1)COc1cc(C3CC3c3c(Cl)cccc3Cl)ccc12 (stereo not drawn) [Compound 176, hydrochloride] , thanks.
[reply] 7.6

[ask] Let me know recorded S1P5 pEC50 for O=C(O)CCN1CCC2(CC1)COc1cc(C3CC3c3c(Cl)cccc3Cl)ccc12 (stereo not drawn) [Compound 178, hydrochloride] , thanks.
[reply] 7.1

###

Target: UniProtKB Q9H228
Assay: In vitro functional activity (agonism) on human S1P5 receptors, CHO-human-S1P5-Aequorin assay
Type: cell-based
Conditions: aequorin luminescence, CHO cells, 3 independent experiments
Counter-ions that a name gives are not always drawn.
Lab note - cut at 8 for S1P5 pEC50: condition met if strictly below, condition not met if not.

[ask] A record lists O=C(O)CCN1CCC2(CC1)COc1cc(OCc3c(Cl)cccc3Cl)ccc12 [Compound 29, hydrochloride] . Is its S1P5 pEC50 below 8?
[reply] condition met

[ask] A record lists O=C(O)CCN1CCC2(CC1)COc1c2ccc(OCc2c(Cl)cc(Cl)cc2Cl)c1F [Compound 132, hydrochloride] . Is its S1P5 pEC50 below 8?
[reply] condition not met

[ask] A record lists O=C(O)CCN1CCC2(CC1)COc1cc(/C=C/c3c(Cl)cccc3Cl)ccc12 [Compound 160, hydrochloride] . Is its S1P5 pEC50 below 8?
[reply] condition met

[ask] A record lists CCc1ccc(Cl)c(C2CC2c2ccc3c(c2)OCC32CCN(CCC(=O)O)CC2)c1 (stereo not drawn) [Compound 182, hydrochloride] . Is its S1P5 pEC50 below 8?
[reply] condition met

[ask] A record lists O=C(O)CCN1CCCC2(COc3cc(OCc4c(Cl)cccc4Cl)ccc32)C1 (stereo not drawn) [Compound 321, hydrochloride] . Is its S1P5 pEC50 below 8?
[reply] condition met

Next:
[ask] A record lists O=C(O)CCCN1CCC2(CC1)COc1cc(OCc3c(Cl)cccc3Cl)ccc12 [Compound 128, hydrochloride] . Is its S1P5 pEC50 below 8?
[reply] condition met

###

Biological target: UniProt:P21453
Experiment: In vitro functional activity (agonism) on human S1P1 receptors (method A), CHO-K1-human-S1P1-Aequorin assay
Type: cell-based
Protocol: In Vitro Functional Activity (Agonism) on Human S1P1 Receptors (Method A) Human-S1P1-Aequorin cells express mitochondrial targeted apo-Aequorin. Cells have to be loaded with coelanterazine, in order to reconstitute active Aequorin. […] Luminescence is measured using the MicroBeta Jet (Perkin Elmer). Agonistic effects of compounds are expressed as pEC50. […]
Structures can show the parent of a compound that is named as a salt.
reported_metric: pEC50
Here pEC50 is given on a logarithmic scale as minus log10 of the concentration in mol/L.

[ask] Let me know recorded pEC50 for "CCc1cccc(CC)c1COc1ccc2c(c1)OCC21CCN(CCC(=O)O)CC1" , thanks.
[reply] 5.60

Could you now consider this next compound?
[ask] Let me know recorded pEC50 for CCc1cccc(Cl)c1CSc1ccc2c(c1)OCC21CCN(CCC(=O)O)CC1 [Compound 140, hydrochloride] , thanks.
[reply] 6.80

###

Documented EC50 across a set of compounds
Target: human S1P1 (Homo sapiens (Human), UniProt P21453)
Sequence (P21453 whole entry): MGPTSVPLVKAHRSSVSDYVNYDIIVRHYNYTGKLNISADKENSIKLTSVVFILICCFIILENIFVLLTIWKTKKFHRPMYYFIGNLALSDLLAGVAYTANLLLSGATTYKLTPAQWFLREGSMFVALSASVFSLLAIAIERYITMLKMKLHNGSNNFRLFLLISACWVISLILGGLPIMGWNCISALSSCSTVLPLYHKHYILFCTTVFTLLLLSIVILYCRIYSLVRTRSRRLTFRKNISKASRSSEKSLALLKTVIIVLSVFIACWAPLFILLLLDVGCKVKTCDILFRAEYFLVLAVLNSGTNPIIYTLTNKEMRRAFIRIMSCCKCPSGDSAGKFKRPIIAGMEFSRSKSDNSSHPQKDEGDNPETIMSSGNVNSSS
Assay: In vitro functional activity (agonism) on human S1P1 receptors (method A), CHO-K1-human-S1P1-Aequorin assay
Assay type: cell-based
Settings: agonism, determined using method A (aequorin luminescence, CHO-K1 cells), 2 independent experiments; read-out: S1P1^A pEC50 (converted)
Where a name gives a salt, the structure may show the parent alone.

[ask] Let me know recorded EC50 for "CCCCCCCOc1ccc2c(c1F)OCC21CCN(CCC(=O)O)CC1" , thanks.
[reply] > 31.6 µM

[ask] Let me know recorded EC50 for O=C(O)CCN1CCCC2(COc3cc(OCc4c(Cl)cccc4C4CC4)ccc32)C1 (stereo not shown) [Compound 317, hydrochloride] , thanks.
[reply] > 31.6 µM

[ask] Let me know recorded EC50 for CCc1cccc(Cl)c1COc1ccc2c(c1)OCC21CCN(CC(=O)O)CC1 [Compound 111, hydrochloride] , thanks.
[reply] > 10 µM

[ask] Let me know recorded EC50 for O=C(O)CCN1CCC2(CC1)COc1cc(SCc3c(Cl)cc(Cl)cc3Cl)ccc12 [Compound 143, hydrochloride] , thanks.
[reply] > 10 µM

[ask] Let me know recorded EC50 for O=C(O)CCN1CCC2(CC1)COc1cc(C#Cc3ccccc3)ccc12 [Compound 303, hydrochloride] , thanks.
[reply] > 31.6 µM

[ask] Let me know recorded EC50 for O=C(O)CCN1CCC2(CC1)COc1c2ccc(OCc2c(Cl)cc(Cl)cc2Cl)c1F [Compound 132, hydrochloride] , thanks.
[reply] > 31.6 µM

[ask] Let me know recorded EC50 for O=C(O)CCN1CCC2(CC1)OCc1cc(OCc3c(Cl)cccc3Cl)ccc12 [Compound 203, hydrochloride] , thanks.
[reply] > 10 µM

[ask] Let me know recorded EC50 for O=C(O)CN1CCC2(CC1)COc1cc(C3CC3c3c(Cl)cccc3Cl)ccc12 (stereo not shown) [Compound 176, hydrochloride] , thanks.
[reply] > 31.6 µM

[ask] Let me know recorded EC50 for O=C(O)CCN1CCCC2(COc3cc(OCc4c(Cl)cccc4Cl)ccc32)C1 (stereo not shown) [Compound 321, hydrochloride] , thanks.
[reply] > 31.6 µM

[ask] Let me know recorded EC50 for O=C(O)CCN1CCCC2(COc3cc(OCc4c(Cl)cccc4C(F)(F)F)ccc32)C1 (stereo not shown) , thanks.
[reply] > 31.6 µM

Next:
[ask] Let me know recorded EC50 for "O=C(O)CCN1CCC2(CC1)COc1cc(OCc3c(Cl)cccc3Cl)c(F)cc12" , thanks.
[reply] > 31.6 µM

[ask] Let me know recorded EC50 for O=C(O)CN1CCC2(CC1)COc1cc(OCc3c(Cl)cc(Cl)cc3Cl)ccc12 [Compound 110, hydrochloride] , thanks.
[reply] > 10 µM

[ask] Let me know recorded EC50 for O=C(O)CCN1CCC2(CC1)COc1cc(S(=O)(=O)Cc3c(Cl)cccc3Cl)ccc12 [Compound 299, hydrochloride] , thanks.
[reply] > 31.6 µM

###

Target: human S1P5 receptor (Homo sapiens (Human))
Sequence (Q9H228 whole entry): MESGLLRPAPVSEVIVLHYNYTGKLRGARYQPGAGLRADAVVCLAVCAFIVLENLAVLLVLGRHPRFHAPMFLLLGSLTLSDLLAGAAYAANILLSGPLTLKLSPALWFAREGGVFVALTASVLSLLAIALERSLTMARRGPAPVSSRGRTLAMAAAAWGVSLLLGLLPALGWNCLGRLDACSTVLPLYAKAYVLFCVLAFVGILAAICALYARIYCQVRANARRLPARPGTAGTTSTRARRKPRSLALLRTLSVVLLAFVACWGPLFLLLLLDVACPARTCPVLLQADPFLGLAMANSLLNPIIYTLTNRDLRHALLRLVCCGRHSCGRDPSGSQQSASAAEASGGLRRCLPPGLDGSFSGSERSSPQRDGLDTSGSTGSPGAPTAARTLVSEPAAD
Assay: In vitro functional activity (agonism) on human S1P5 receptors, CHO-human-S1P5-Aequorin assay
Format: cell-based
Settings: aequorin luminescence, CHO cells, 3 independent experiments
Structures can show the parent of a compound that is named as a salt.
reported_metric: S1P5 pEC50
API note: the answer field is a bare number with no unit suffix.

Some solved cases for reference:
[ask] Let me know recorded S1P5 pEC50 for O=C(O)CCN1CCC2(CC1)COc1cc(SCc3c(Cl)cc(Cl)cc3Cl)ccc12 [Compound 143, hydrochloride] , thanks.
[reply] 7.5

[ask] Let me know recorded S1P5 pEC50 for O=C(O)CCCN1CCC2(CC1)COc1cc(OCc3c(Cl)cccc3C3CC3)ccc12 [Compound 121, hydrochloride] , thanks.
[reply] 7.1

[ask] Let me know recorded S1P5 pEC50 for O=C(O)CCN1CCC2(CC1)COc1cc(OC3CCc4cc(Cl)cc(Cl)c43)ccc12 (centres unmarked) [Compound 79] , thanks.
[reply] 7.2

[ask] Let me know recorded S1P5 pEC50 for O=C(O)CCN1CCC2(CC1)COc1cc(OCc3c(F)cccc3Cl)ccc12 [Compound 38, hydrochloride] , thanks.
[reply] 6.7

[ask] Let me know recorded S1P5 pEC50 for O=C(O)CCN1CCC2(CC1)COc1cc(Oc3c(Cl)cccc3Cl)ccc12 [Compound 248, hydrochloride] , thanks.
[reply] 6.5

[ask] Let me know recorded S1P5 pEC50 for O=C(O)CCN1CCC2(CC1)COc1cc(C#Cc3ccccc3)ccc12 [Compound 303, hydrochloride] , thanks.
[reply] 7.6

[ask] Let me know recorded S1P5 pEC50 for CC(CN1CCC2(CC1)COc1cc(OCc3c(Cl)cc(Cl)cc3Cl)ccc12)C(=O)O (centres unmarked) [Compound 102, hydrochloride] , thanks.
[reply] 7.8

Next:
[ask] Let me know recorded S1P5 pEC50 for CCc1cccc(Cl)c1CSc1ccc2c(c1F)OCC21CCN(CCC(=O)O)CC1 [Compound 296, hydrochloride] , thanks.
[reply] 8.7
